Hello, the source for this data is PubChem BioAssay (NCATS), in case you need it.

protocol: qHTS assay to identify inhibitors of the type 1 interferon - major histocompatibility complex class I in skeletal muscle: Counter screen cell viability and HiBit confirmation (AID 1347412)
cond: iHSKM muscle cells + IFN-b, HiBiT or CellTiter-Glo, 24 h; Viability; at 45.9 µM (top of the series)
Inconclusive results are not listed.
Rule: activity change, negative = inhibition of -20% or more gives t; anything lower gives f.

{"columns": ["smiles_notation", "classification"],
 "data": [
  ["CC(C)CNc1ccnc(NCc2csc(-c3ccccc3)n2)n1", "f"],
  ["CNC(=O)c1cc(COc2nnc(Nc3ccc(Cl)cc3)c3ccoc23)ccn1", "f"],
  ["O=C1CN2Cc3c(ccc(Cl)c3Cl)N=C2N1", "t"],
  ["Cc1ccccc1-n1c(Cn2nc(-c3cccc(O)c3)c3c(N)ncnc32)nc2cccc(C)c2c1=O", "t"]
]}
